Data provenance is the NIST ThermoML archive (doi:10.1016/j.jct.2017.11.017).

# Assay summary: activity coefficient (dimensionless); of the first substance listed, at infinite dilution; xn = mol fraction of the nth substance listed
# Test context: 318.15 K; 101.33 kPa; Liquid; Chromatography; x1 = 0

{"columns": ["Compound", "activity coefficient"],
 "data": [
  ["C=Cc1ccccc1 [styrene] + C[n+]1ccn(CCCO)c1.N#CN=C=[N-]", 5.97],
  ["C1CCCCC1 [cyclohexane] + C[n+]1ccn(CCCO)c1.N#CN=C=[N-]", 97.9],
  ["CCCC(C)=O [pentan-2-one] + C[n+]1ccn(CCCO)c1.N#CN=C=[N-]", 4.94],
  ["CCCCCCCCCC [decane] + C[n+]1ccn(CCCO)c1.N#CN=C=[N-]", 1530],
  ["CCOC(C)=O [ethyl acetate] + C[n+]1ccn(CCCO)c1.N#CN=C=[N-]", 5.72],
  ["CCC[N+](=O)[O-] [1-nitropropane] + C[N+]1(CCCO)CCOCC1.N#C[N-]C#N", 3.26],
  ["C=CCCCCCC [oct-1-ene] + C[N+]1(CCCO)CCOCC1.N#C[N-]C#N", 764],
  ["COC(C)(C)C [2-methoxy-2-methylpropane] + C[N+]1(CCCO)CCOCC1.N#C[N-]C#N", 52.4],
  ["CC(C)CC(C)(C)C [2,2,4-trimethylpentane] + C[n+]1ccn(CCCO)c1.N#CN=C=[N-]", 579],
  ["CC(C)(C)O [2-methylpropan-2-ol] + C[N+]1(CCCO)CCOCC1.N#C[N-]C#N", 4.35],
  ["CCCc1ccccc1 [propylbenzene] + C[n+]1ccn(CCCO)c1.N#CN=C=[N-]", 26.8],
  ["CCCC=O [butanal] + C[N+]1(CCCO)CCOCC1.N#C[N-]C#N", 4.26],
  ["CCCC(C)=O [pentan-2-one] + C[N+]1(CCCO)CCOCC1.N#C[N-]C#N", 7.85],
  ["C#CCCCCCC [1-octyne] + C[N+]1(CCCO)CCOCC1.N#C[N-]C#N", 145],
  ["c1ccsc1 [thiophene] + C[N+]1(CCCO)CCOCC1.N#C[N-]C#N", 3.23],
  ["COC(C)=O [methyl ethanoate] + C[n+]1ccn(CCCO)c1.N#CN=C=[N-]", 3.07],
  ["CCCOCCC [dipropyl ether] + C[n+]1ccn(CCCO)c1.N#CN=C=[N-]", 82.3],
  ["CCCCCO [pentan-1-ol] + C[N+]1(CCCO)CCOCC1.N#C[N-]C#N", 7.75],
  ["C=CCCCC [hex-1-ene] + C[n+]1ccn(CCCO)c1.N#CN=C=[N-]", 109],
  ["CCCCO [butan-1-ol] + C[N+]1(CCCO)CCOCC1.N#C[N-]C#N", 4.66],
  ["CCCCCC [hexane] + C[n+]1ccn(CCCO)c1.N#CN=C=[N-]", 286],
  ["CCCCCCCC [octane] + C[N+]1(CCCO)CCOCC1.N#C[N-]C#N", 1460],
  ["C=CCCCCCCCC [1-decene] + C[n+]1ccn(CCCO)c1.N#CN=C=[N-]", 764],
  ["C=CCCC [1-pentene] + C[n+]1ccn(CCCO)c1.N#CN=C=[N-]", 63.5],
  ["Cc1ccccc1C [1,2-dimethylbenzene] + C[n+]1ccn(CCCO)c1.N#CN=C=[N-]", 10.9],
  ["CCC(C)CC [3-methylpentane] + C[n+]1ccn(CCCO)c1.N#CN=C=[N-]", 249],
  ["C#CCCCCC [1-heptyne] + C[n+]1ccn(CCCO)c1.N#CN=C=[N-]", 34.6],
  ["COC(C)(C)C [2-methoxy-2-methylpropane] + C[n+]1ccn(CCCO)c1.N#CN=C=[N-]", 22.8],
  ["C#CCCC [1-pentyne] + C[N+]1(CCCO)CCOCC1.N#C[N-]C#N", 23.6],
  ["C1COCCO1 [1,4-dioxane] + C[n+]1ccn(CCCO)c1.N#CN=C=[N-]", 1.73],
  ["C1CCCCCC1 [cycloheptane] + C[N+]1(CCCO)CCOCC1.N#C[N-]C#N", 341]
]}
